Each recorded value in this set is attributed to ChEMBL document CHEMBL3817819.

target: Gamma-butyrobetaine dioxygenase (Pseudomonas sp. (strain AK-1)); assay: Inhibition of Pseudomonas sp. AK1 BBOX using GBBF as substrate after 10 mins in presence of 2OG and Fe2+ using TBS-protected fluorescein probe by fluoride release assay
Sequence (P80193 whole entry): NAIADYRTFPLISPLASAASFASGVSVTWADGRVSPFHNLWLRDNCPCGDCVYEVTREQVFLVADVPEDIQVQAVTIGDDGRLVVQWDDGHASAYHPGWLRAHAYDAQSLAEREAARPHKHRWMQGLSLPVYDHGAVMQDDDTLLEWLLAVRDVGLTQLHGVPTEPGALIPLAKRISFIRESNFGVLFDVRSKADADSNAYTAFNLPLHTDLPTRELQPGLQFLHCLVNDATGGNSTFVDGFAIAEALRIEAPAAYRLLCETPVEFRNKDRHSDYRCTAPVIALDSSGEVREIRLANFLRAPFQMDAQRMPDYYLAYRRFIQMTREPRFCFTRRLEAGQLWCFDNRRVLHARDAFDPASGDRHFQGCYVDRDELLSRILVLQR
Metric: pIC50
Note on units: pIC50 is unitless, being -log10 of a concentration expressed in mol/L.

query: # input molecule: CC(C)C[C@H](NC(=O)c1nc(Cl)c2ccccc2c1O)C(=O)O ; wanted: its pIC50
result: 3.90

query: What value of pIC50 has been reported for the following molecule? O=C(O)CC[C@H](NC(=O)c1nc(Cl)c2ccccc2c1O)C(=O)O
result: 3.83

query: Looking for the measured pIC50 of CC(C)[C@H](NC(=O)c1nc(Cl)c2ccccc2c1O)C(=O)O , can you help?
result: 3.89

query: Query (molecule): O=C(N[C@@H](Cc1c[nH]c2ccccc12)C(=O)O)c1nc(Cl)c2ccccc2c1O ; field requested: pIC50
result: 4.59

query: Which pIC50 is listed for O=C(O)C[C@@H](NC(=O)c1nc(Cl)c2ccccc2c1O)C(=O)O ?
result: 3.80

query: Report pIC50 for O=C(O)C[C@H](NC(=O)c1nc(Cl)c2ccccc2c1O)C(=O)O please.
result: 3.61

query: Bench note: what pIC50 did O=C(N[C@H](Cc1ccccc1)C(=O)O)c1nc(Cl)c2ccccc2c1O show?
result: 4.00
